This collection of values is drawn from PubChem BioAssay (NCI).

Reported TGI values follow for various compounds
# System: DLD-1 colon
# test_protocol: NCI tumour cell line growth inhibition, 48 h
measure_name: TGI

- compound: "COc1ccc(/C=C2/C[N+](C)(C)C/C(=C/c3ccc(OC)cc3)C2=O)cc1"
  measure_name: "TGI"
  result: "> 100 µM"
- compound: "ON=C1CCC(c2ccccc2)CC1 (stereo not given)"
  measure_name: "TGI"
  result: "> 100 µM"
- compound: "COC(=O)c1c(CC#N)cccc1CC#N"
  measure_name: "TGI"
  result: "> 100 µM"
- compound: "CS(=O)c1ccc(COP(N)(=O)N(CCCl)CCCl)cc1 (stereo not given)"
  measure_name: "TGI"
  result: "> 100 µM"
- compound: "CC1NOC(=O)C1N=Nc1ccccc1Cl (stereo not given)"
  measure_name: "TGI"
  result: "> 100 µM"
- compound: "CCOC(=O)C(C)c1cc(C2(C)OCCO2)c(C)o1 (stereo not given)"
  measure_name: "TGI"
  result: "> 100 µM"
- compound: "COC(=O)C1=CC[C@@H]2C(C(=O)O)=CO[C@@H](OC3OC(CO)C(O)C(O)C3O)[C@H]12 (stereo not given in full)"
  measure_name: "TGI"
  result: "> 189 µM"
- compound: "C=C1CC[C@@H]2C(C)(C)CCC[C@@]2(C)[C@@H]1Cc1cc(O)ccc1O"
  measure_name: "TGI"
  result: "18.1 µM"
- compound: "O=C1C(=O)N(c2ccc(Cl)c(Cl)c2)C(=O)C(=O)C1c1nc2ccccc2o1"
  measure_name: "TGI"
  result: "> 100 µM"
- compound: "CC(=O)Nc1ccc(C2[C@H]3C(=O)N(c4ccc(Cc5ccc(N6C(=O)[C@@H]7ON(c8ccccc8)C(c8ccc(NC(C)=O)cc8)[C@@H]7C6=O)cc5)cc4)C(=O)[C@H]3ON2c2ccccc2)cc1 (stereo not given in full)"
  measure_name: "TGI"
  result: "> 100 µM"
- compound: "[C-]#[O+].[C-]#[O+].[Ir].[O-]c1cccc2cccnc12"
  measure_name: "TGI"
  result: "> 100 µM"
- compound: "CN(c1ccccc1)C(c1ccccc1)C(O)c1ccccc1 (stereo not given)"
  measure_name: "TGI"
  result: "47.5 µM"
- compound: "CC(=O)/C=C/c1ccc(C2CC(C)=Nc3c(ccc4c3C(=O)c3ccccc3C4=O)N2)cc1 (stereo not given)"
  measure_name: "TGI"
  result: "> 100 µM"
- compound: "CC(C)(C)[C@H]1CO[C@]2(C)[C@@H]3C[C@@H]3C(=O)N12"
  measure_name: "TGI"
  result: "> 100 µM"
- compound: "[N-]=[N+]=NC1C(Br)C(=O)NC(=O)N1[C@H]1C[C@H](O)[C@@H](CO)O1 (stereo not given in full)"
  measure_name: "TGI"
  result: "> 100 µM"
- compound: "COc1cccc(-c2nc3c(C(=O)NCCN(C)C)cccc3[nH]2)c1"
  measure_name: "TGI"
  result: "63.1 µM"
- compound: "O=[N+]([O-])C1C2C=CC(C2)[C@H]1c1ccccc1Cl (stereo not given in full)"
  measure_name: "TGI"
  result: "> 100 µM"
- compound: "COC(=O)N/N=C/c1oc(-c2cccc([N+](=O)[O-])c2)c(-c2cccc([N+](=O)[O-])c2)c1[N+](=O)[O-]"
  measure_name: "TGI"
  result: "> 100 µM"
- compound: "CC1(C)OCC(CO)(Nc2nc(N3CC3)nc(N3CC3)n2)CO1"
  measure_name: "TGI"
  result: "> 93 µM"
- compound: "CCOC(=O)C(=O)Nc1c(N(CC)CC)n2ccccc2nc1=O"
  measure_name: "TGI"
  result: "> 100 µM"
